Source of measurements: ChEMBL document CHEMBL5352469

Each entry below carries its reported Stability.
Test summary: Chemical stability of the compound under 4500 +/- 500 lx light condition by measuring compound purity incubated for 10 days by HPLC-PDA method relative to initial purity
Type: physicochemical
Condition notes: 240 h; time 10 day

| Smiles entry | Stability [%] |
| --- | --- |
| O=c1cc(N2CCN(CC3CCCCC3)CC2)sc2c([N+](=O)[O-])cc(C(F)(F)F)cc12 | 98.2 |
| O=C(O)C[C@H](O)C(=O)O.O=c1cc(N2CCN(CC3CCCCC3)CC2)sc2c([N+](=O)[O-])cc(C(F)(F)F)cc12 | 90.6 |
| Cl.O=c1cc(N2CCN(CC3CCCCC3)CC2)sc2c([N+](=O)[O-])cc(C(F)(F)F)cc12 | 99.8 |
| O=C(O)CC(O)(CC(=O)O)C(=O)O.O=c1cc(N2CCN(CC3CCCCC3)CC2)sc2c([N+](=O)[O-])cc(C(F)(F)F)cc12 | 91.3 |
